assay: Membrane permeabilization activity assessed as release of calcein from DOPC liposomes at lipid:compound ratio of 4 incubated for 30 mins by fluorescence assay; type: ADME; settings: 0.5 h
Result Type: Activity

COc1c(O)cc2oc3cc(O)c(CC=C(C)C)c(O)c3c(=O)c2c1CC=C(C)C [MANGOSTIN]
33.6%
COc1c(O)cc2oc3cc(O)c(CCC(C)C)c(O)c3c(=O)c2c1CCC(C)C
Not Active
CCN(CC)CCCCOc1ccc2c(=O)c3c(O)cc(OCCCCN(CC)CC)cc3oc2c1
Not Active
O=c1c2ccc(O)cc2oc2cc(O)cc(O)c12
Not Active

* * *

Please provide measured MIC for the entries that follow.
tested on: Bacillus cereus; experiment: Antibacterial activity against clinical isolates of Bacillus cereus ATCC 11778 after 24 hrs by […]; format: functional; settings: ATCC 11778, 24 h
Write the number in µg/mL without appending the unit.

Q: Find the measured MIC of COc1c(OCCCCN(C)C)cc2oc3cc(OCCCCN(C)C)c(CCC(C)C)c(O)c3c(=O)c2c1CCC(C)C with Bacillus cereus as test system.
Ans: 12.5

Q: Find the measured MIC of CCCCCCN(C)CCCCOc1cc2oc3cc(OCCCCN(C)CCCCCC)c(OC)c(CC=C(C)C)c3c(=O)c2c(O)c1CC=C(C)C with Bacillus cereus as test system.
Ans: 50

Q: Find the measured MIC of COc1c(OCCCCN2CCCCC2)cc2oc3cc(OCCCCN4CCCCC4)c(CC=C(C)C)c(O)c3c(=O)c2c1CC=C(C)C with Bacillus cereus as test system.
Ans: 6.25

* * *

tested on: Staphylococcus aureus; test: Antibacterial activity against clinical isolates of methicillin-resistant Staphylococcus aureus DM21455 after 24 hrs by […]; format: functional; details: DM21455, 24 h
Result Type: MIC (µg/mL)
Write the number in µg/mL without appending the unit.

Q: Find the measured MIC of CCN1CCN(CCCCOc2cc3oc4cc(OCCCCN5CCN(CC)CC5)c(OC)c(CC=C(C)C)c4c(=O)c3c(O)c2CC=C(C)C)CC1 with Staphylococcus aureus as test system.
Ans: 6.25

Q: Find the measured MIC of CCCCCCN(C)CCCCOc1cc2oc3cc(OCCCCN(C)CCCCCC)c(OC)c(CC=C(C)C)c3c(=O)c2c(O)c1CC=C(C)C with Staphylococcus aureus as test system.
Ans: 50

Q: Find the measured MIC of COc1c(OCCCCNC(=N)N)cc2oc3cc(OCCCCNC(=N)N)c(CC=C(C)C)c(O)c3c(=O)c2c1CC=C(C)C with Staphylococcus aureus as test system.
Ans: 6.25

Q: Find the measured MIC of COc1c(OCCCCN2CCNCC2)cc2oc3cc(OCCCCN4CCNCC4)c(CC=C(C)C)c(O)c3c(=O)c2c1CC=C(C)C with Staphylococcus aureus as test system.
Ans: 12.5

* * *

Please provide measured log10(MIC) for the entries that follow.
test system: Bacillus cereus; assay: Antibacterial activity against clinical isolates of Bacillus cereus ATCC 11778 after 24 hrs by […]; assay type: functional; conditions: ATCC 11778, 24 h
Form field - Quantity: MIC; Unit: µg/mL; Scale: log10

Q: Find the measured log10(MIC) of CCCN(CCC)CCCCOc1cc2oc3cc(OCCCCN(CCC)CCC)c(OC)c(CC=C(C)C)c3c(=O)c2c(O)c1CC=C(C)C with Bacillus cereus as test system.
Ans: 1.70

Q: Find the measured log10(MIC) of CCCCCN(C)CCCCOc1cc2oc3cc(OCCCCN(C)CCCCC)c(OC)c(CC=C(C)C)c3c(=O)c2c(O)c1CC=C(C)C with Bacillus cereus as test system.
Ans: 1.10

Q: Find the measured log10(MIC) of CCN(CC)CCCCOc1cc2oc3cc(OCCCCN(CC)CC)c(OC)c(CC=C(C)C)c3c(=O)c2c(OCCCCN(CC)CC)c1CC=C(C)C with Bacillus cereus as test system.
Ans: 1.70

Q: Find the measured log10(MIC) of COc1c(OCCCCN2CCNCC2)cc2oc3cc(OCCCCN4CCNCC4)c(CC=C(C)C)c(O)c3c(=O)c2c1CC=C(C)C with Bacillus cereus as test system.
Ans: 1.10

Q: Find the measured log10(MIC) of COc1c(OCCCCN2CCCC2)cc2oc3cc(OCCCCN4CCCC4)c(CCC(C)C)c(O)c3c(=O)c2c1CCC(C)C with Bacillus cereus as test system.
Ans: 0.80

Q: Find the measured log10(MIC) of COc1c(OCCCCN2CC[C@H](N(C)C)C2)cc2oc3cc(OCCCCN4CC[C@H](N(C)C)C4)c(CC=C(C)C)c(O)c3c(=O)c2c1CC=C(C)C with Bacillus cereus as test system.
Ans: 0.80

Q: Find the measured log10(MIC) of CCN(CC)CCCOc1cc2oc3cc(OCCCN(CC)CC)c(OC)c(CC=C(C)C)c3c(=O)c2c(O)c1CC=C(C)C with Bacillus cereus as test system.
Ans: 0.80

Q: Find the measured log10(MIC) of COc1c(OCCCCN2CCN(CCN(C)C)CC2)cc2oc3cc(OCCCCN4CCN(CCN(C)C)CC4)c(CC=C(C)C)c(O)c3c(=O)c2c1CC=C(C)C with Bacillus cereus as test system.
Ans: 0.80

Q: Find the measured log10(MIC) of CCN(CC)CCCCOc1cc2oc3cc(OCCCCN(CC)CC)c(OC)c(CCC(C)C)c3c(=O)c2c(O)c1CCC(C)C with Bacillus cereus as test system.
Ans: 1.40

Q: Find the measured log10(MIC) of COc1c(OCCCCN2CCCC2)cc2oc3cc(OCCCCN4CCCC4)c(CC=C(C)C)c(O)c3c(=O)c2c1CC=C(C)C with Bacillus cereus as test system.
Ans: 0.80

Q: Find the measured log10(MIC) of COc1c(OCCCCN)cc2oc3cc(OCCCCN)c(CC=C(C)C)c(O)c3c(=O)c2c1CC=C(C)C with Bacillus cereus as test system.
Ans: 0.49

Q: Find the measured log10(MIC) of CCCCN(CC)CCCCOc1cc2oc3cc(OCCCCN(CC)CCCC)c(OC)c(CC=C(C)C)c3c(=O)c2c(O)c1CC=C(C)C with Bacillus cereus as test system.
Ans: 1.40

Q: Find the measured log10(MIC) of COc1c(OCCCCI)cc2oc3cc(OCCCCI)c(CC=C(C)C)c(OCCCCI)c3c(=O)c2c1CC=C(C)C with Bacillus cereus as test system.
Ans: 1.70

Q: Find the measured log10(MIC) of CCCN(CC)CCCCOc1cc2oc3cc(OCCCCN(CC)CCC)c(OC)c(CC=C(C)C)c3c(=O)c2c(O)c1CC=C(C)C with Bacillus cereus as test system.
Ans: 1.40

Q: Find the measured log10(MIC) of COc1c(OCCCCN2CCC(O)CC2)cc2oc3cc(OCCCCN4CCC(O)CC4)c(CC=C(C)C)c(O)c3c(=O)c2c1CC=C(C)C with Bacillus cereus as test system.
Ans: 0.80

Q: Find the measured log10(MIC) of CCN(CC)CCCCOc1cc2oc3cc(OCCCCN(CC)CC)c(OC)c(CC=C(C)C)c3c(=O)c2c(O)c1CC=C(C)C with Bacillus cereus as test system.
Ans: 0.49

Q: Find the measured log10(MIC) of CCCCN(C)CCCCOc1cc2oc3cc(OCCCCN(C)CCCC)c(OC)c(CC=C(C)C)c3c(=O)c2c(O)c1CC=C(C)C with Bacillus cereus as test system.
Ans: 1.40

Q: Find the measured log10(MIC) of COc1c(OCCCCN2CCN(C)CC2)cc2oc3cc(OCCCCN4CCN(C)CC4)c(CC=C(C)C)c(O)c3c(=O)c2c1CC=C(C)C with Bacillus cereus as test system.
Ans: 1.10

Q: Find the measured log10(MIC) of CCN(CC)CCCCCOc1cc2oc3cc(OCCCCCN(CC)CC)c(OC)c(CC=C(C)C)c3c(=O)c2c(O)c1CC=C(C)C with Bacillus cereus as test system.
Ans: 0.80

Q: Find the measured log10(MIC) of CCN(CCO)CCCCOc1cc2oc3cc(OCCCCN(CC)CCO)c(OC)c(CC=C(C)C)c3c(=O)c2c(O)c1CC=C(C)C with Bacillus cereus as test system.
Ans: 0.49

Q: Find the measured log10(MIC) of COc1c(OCCCCN(C)C)cc2oc3cc(OCCCCN(C)C)c(CC=C(C)C)c(O)c3c(=O)c2c1CC=C(C)C with Bacillus cereus as test system.
Ans: 0.80

Source: ChEMBL document CHEMBL3751813
